Test: HPLC retention times (reverse phase) as a measure of hydrophilicity
Format: physicochemical
Conditions: reverse phase C18 3.5 μm 4.6×75 mm; 45° C.; flow 1.0 mL/min; isocratic 40:60 v/v H2O:MeOH; shorter retention times correspond to higher hydrophilicity
measuredParameter: retention time (min)
Reply with just the number (in min).

Short answer for CC(=O)[C@H]1CC[C@H]2[C@@H]3CC[C@H]4C[C@@H](O)CC[C@]4(C)[C@H]3CC[C@]12C [3β-5α-pregnan-20-one, reference compound] : retention time was 30.0

Quick note, retention time for C#C[C@@]1(O)CC[C@@]2(C)[C@@H](CC[C@@H]3[C@@H]2CC[C@]2(C)C(=O)CC[C@@H]32)C1 [UC 2021] landed at 7.8

Documented retention time of CC(=O)[C@H]1CC[C@H]2[C@@H]3CC[C@@H]4C[C@@H](O)CC[C@]4(C)[C@H]3CC[C@]12C [3β-5β-pregnan-20-one, reference compound] : 24.4

###

Would you mind telling me the reported retention time of each entry?
Assay: HPLC retention times (reverse phase) as a measure of hydrophilicity
Format: physicochemical
Settings: reverse phase C18 3.5 μm 4.6×75 mm; 45° C.; flow 1.0 mL/min; isocratic 40:60 v/v H2O:MeOH; shorter retention times correspond to higher hydrophilicity

Sample C#C[C@]1(O)C=C2CCC3C(CC[C@@]4(C)C3CC[C@@H]4C(C)=O)[C@@]2(C)CC1 (stereo partly drawn) ; retention time observed: 14.0 min

Sure, the documented retention time for C#C[C@@]1(O)CC[C@@]2(C)C(CC[C@@H]3[C@@H]2CC[C@]2(C)/C(=N\O)CC[C@@H]32)C1 (stereo partly drawn) is 13.9 min

# retention time of `C#C[C@@]1(O)CC[C@@]2(C)[C@@H](CC[C@@H]3[C@@H]2CC[C@]2(C)[C@@H](/C(C)=N/O)CC[C@@H]32)C1` = 16.9 min

From: patent US8853190B2
